Values compiled from paper PMC11156913.

Recorded percentage cytotoxicity on MCF-7 for the following molecules
system: breast MCF-7 cancer cell line; experiment: In vitro cytotoxic activity (MTT assay), MCF-7; type: cell-based, human; settings: 100 µM
observable: percentage cytotoxicity on MCF-7

# molecule, observable, valueMeasured
data = [
    ("CC(=O)OC[C@H]1O[C@@H](OCc2cn(-c3ccc(S(=O)(=O)NC4CCCCC4)cc3)nn2)[C@H](OC(C)=O)[C@@H](OC(C)=O)[C@H]1OC(C)=O", "percentage cytotoxicity on MCF-7", "98.89±0.19%"),
    ("CCCCNS(=O)(=O)c1ccc(-n2cc(CO[C@@H]3OC[C@@H](OC(C)=O)[C@H](OC(C)=O)[C@H]3OC(C)=O)nn2)cc1", "percentage cytotoxicity on MCF-7", "66.04±0.69%"),
    ("[N-]=[N+]=Nc1ccc(S(=O)(=O)NC2CCCCC2)cc1 [Compound 4, 4-Azido-N-cyclohexylbenzenesulfonamide]", "percentage cytotoxicity on MCF-7", "91.20±0.09%"),
    ("CC(=O)O[C@@H]1[C@@H](OC(C)=O)[C@H](OCc2cn(-c3ccc(S(=O)(=O)NC4CCCCC4)cc3)nn2)OC[C@H]1OC(C)=O", "percentage cytotoxicity on MCF-7", "92.73±1.04%"),
    ("O=S(=O)(NC1CCCCC1)c1ccc(-n2cc(CO[C@@H]3OC[C@@H](O)[C@H](O)[C@H]3O)nn2)cc1", "percentage cytotoxicity on MCF-7", "71.43±2.03%"),
]

* * *

test system: liver HepG-2 cancer cell line; assay: In vitro cytotoxic activity (MTT assay), HepG-2; conditions: 50 µM
Recorded percentage cytotoxicity on HepG-2 for the following molecules

# molecule, unitAbbreviation, percentage cytotoxicity on HepG-2
measured = [
    ("CCCCNS(=O)(=O)c1ccc(-n2cc(CO[C@@H]3OC[C@@H](O)[C@H](O)[C@H]3O)nn2)cc1", "%", 55.95),
    ("CCCCNS(=O)(=O)c1ccc(-n2cc(CO[C@@H]3OC[C@@H](OC(C)=O)[C@H](OC(C)=O)[C@H]3OC(C)=O)nn2)cc1", "%", 50.73),
    ("O=S(=O)(NC1CCCCC1)c1ccc(-n2cc(CO[C@@H]3OC[C@@H](O)[C@H](O)[C@H]3O)nn2)cc1", "%", 56.20),
    ("[N-]=[N+]=Nc1ccc(S(=O)(=O)NC2CCCCC2)cc1 [Compound 4, 4-Azido-N-cyclohexylbenzenesulfonamide]", "%", 85.67),
    ("CC(=O)O[C@@H]1[C@@H](OC(C)=O)[C@H](OCc2cn(-c3ccc(S(=O)(=O)NC4CCCCC4)cc3)nn2)OC[C@H]1OC(C)=O", "%", 82.59),
    ("CCCCNS(=O)(=O)c1ccc(N=[N+]=[N-])cc1 [Compound 3, 4-Azido-N-butylbenzenesulfonamide]", "%", 49.40),
]

* * *

Recorded percentage cytotoxicity on HepG-2 for the following compounds
tested on: liver HepG-2 cancer cell line; experiment: In vitro cytotoxic activity (MTT assay), HepG-2; settings: 12.5 µM
observable: percentage cytotoxicity on HepG-2 (%)

# compound, valueMeasured
records = [
    ("CC(=O)O[C@@H]1[C@@H](OC(C)=O)[C@H](OCc2cn(-c3ccc(S(=O)(=O)NC4CCCCC4)cc3)nn2)OC[C@H]1OC(C)=O", 58.20),
    ("CCCCNS(=O)(=O)c1ccc(-n2cc(CO[C@@H]3OC[C@@H](O)[C@H](O)[C@H]3O)nn2)cc1", 33.95),
    ("[N-]=[N+]=Nc1ccc(S(=O)(=O)NC2CCCCC2)cc1 [Compound 4, 4-Azido-N-cyclohexylbenzenesulfonamide]", 85.13),
    ("O=S(=O)(NC1CCCCC1)c1ccc(-n2cc(CO[C@@H]3O[C@H](CO)[C@H](O)[C@H](O)[C@H]3O)nn2)cc1", 44.80),
    ("CCCCNS(=O)(=O)c1ccc(N=[N+]=[N-])cc1 [Compound 3, 4-Azido-N-butylbenzenesulfonamide]", 3.76),
]
